experimental.setup: buffer; pH 7.4; 200.0 µM
Each entry below lists one item and its recorded solubility kinetic value.
Hi! Could you send only the number? It should be in µg/mL, unit omitted.

Solved entries (count: 8):
>>> assay_result("O=Cc1c(-c2ccc(F)cc2)nc2ccccn12")
2.5
>>> assay_result("C=CCN(Cc1ccc(Cl)s1)C(=O)c1ccc(F)c(S(=O)(=O)N2CCOCC2)c1")
23.8
>>> assay_result("Cc1ccc(N=Cc2cc3c(cc2[N+](=O)[O-])OCO3)cc1[N+](=O)[O-]")
20.5
>>> assay_result("O=C(NC(=S)Nc1cccc2ncccc12)c1ccco1")
13.3
>>> assay_result("COc1ccc(OC)c(C(=O)CN2C(=O)C(=O)N(C3CCCC3)C2=O)c1")
41.3
>>> assay_result("O=C(COc1ccccc1Cl)NCCNC(=O)c1ccco1")
47.3
>>> assay_result("Cc1cccc(C)c1N=C1C(=O)Nc2ccccc21")
31.2
>>> assay_result("NC1=NC(=O)C(Cc2ccc(Br)cc2)S1 (stereo not drawn)")
36.5

Consider the compound COC(=O)c1ccc(CSc2nc(C(F)F)cc(C)c2C#N)o1 and give its measured solubility kinetic. 8.3

Consider the compound COc1ccc(NC(=S)NCCNC(C)=O)cc1 and give its measured solubility kinetic. 35.4

Consider the compound COc1ccc(Br)cc1CN(C)C(=O)C1CC(=O)N(C2CCCC2)C1 (stereo not drawn) and give its measured solubility kinetic. 54.2

Consider the compound Cn1c(Br)nc2c1c(=O)n(Cc1ccccc1)c(=O)n2C and give its measured solubility kinetic. 46.1

Consider the compound CC(=O)c1ccc(NC(=O)CCNC(=O)c2ccccc2Cl)cc1 and give its measured solubility kinetic. 48.8

Consider the compound CC(=O)c1cn(CC(=O)NCCc2c[nH]c3ccccc23)c2ccccc12 and give its measured solubility kinetic. 2.6
